Reference source for all entries: the kinase profiling compilation of Christmann-Franck et al. (2016)

Listing of entries alongside the reported kinase still bound, per cent of control.
system: CAMK2G (human) (UniProt Q13555)
Sequence (Q13555 whole entry, looked up): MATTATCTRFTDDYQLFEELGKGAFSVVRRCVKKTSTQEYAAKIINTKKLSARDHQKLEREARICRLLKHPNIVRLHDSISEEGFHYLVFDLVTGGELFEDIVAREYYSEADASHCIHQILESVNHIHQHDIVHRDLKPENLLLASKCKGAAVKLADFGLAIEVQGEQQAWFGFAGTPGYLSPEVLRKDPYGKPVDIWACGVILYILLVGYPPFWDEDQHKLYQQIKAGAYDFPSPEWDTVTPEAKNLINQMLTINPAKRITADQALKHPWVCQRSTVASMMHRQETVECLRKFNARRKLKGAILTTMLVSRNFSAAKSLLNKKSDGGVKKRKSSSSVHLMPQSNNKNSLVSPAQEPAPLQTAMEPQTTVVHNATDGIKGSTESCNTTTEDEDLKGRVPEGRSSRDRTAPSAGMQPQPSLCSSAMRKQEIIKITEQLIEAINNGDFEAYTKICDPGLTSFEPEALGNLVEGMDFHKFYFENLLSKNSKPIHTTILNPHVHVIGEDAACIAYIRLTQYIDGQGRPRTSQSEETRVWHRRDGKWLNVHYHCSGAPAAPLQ
assay-protocol: KINOMEscan competition binding
assay-conditions: compound 10.0 µM
Field: numeric (%). Do not append units.

Examples with their reported kinase still bound, per cent of control follow.
The recorded kinase still bound, per cent of control for entry Cn1cc(C2=C(c3ccc(Cl)cc3Cl)C(=O)NC2=O)c2ccccc21 equals 58

For record O=C1Nc2cc(Br)ccc2/C1=C1/Nc2ccccc2/C1=N\O the listed kinase still bound, per cent of control is 8.8

Lab note: measured kinase still bound, per cent of control of Cc1cnc(-c2cnc(NCCNc3ccc(C#N)cn3)nc2-c2ccc(Cl)cc2Cl)[nH]1 was 100

More entries:
kinase still bound, per cent of control reading for COc1ccc(CNC(=O)Nc2ncc([N+](=O)[O-])s2)cc1 : 100
